Tested on: Trypanosoma brucei
test protocol: Trypanosoma brucei 72 hour study
Assay type: functional, organism-based
Set-up: scale not given: in the data most compounds retested in dose-response had high values
condition parameters: 30.3 µM; […]
Among all 66,000 compounds or so, about 960 (1.5%) showed an effect of 50% or more. Only a selection was taken, and strong results are over-represented in it overall.
measured metric: Percent Effect (%)
Note: unit % is implicit; provide only the numeric part.

Examples with answers:
compound: COc1cccc(OC)c1C(=O)NCC(c1cccn1C)N1CCCC1 (configuration not stated)
experimental system: Trypanosoma brucei
readout unit: %
endpoint value: 99.38
--
compound: COc1ccc(C(=O)NCC(c2cccn2C)N2CCCC2)cc1OC (configuration not stated)
experimental system: Trypanosoma brucei
readout unit: %
endpoint value: -9.189
--
compound: CNC(=O)CC1CCN(Cc2nc(-c3ccc(SC)cc3)oc2C)CC1
experimental system: Trypanosoma brucei
readout unit: %
endpoint value: 15.19

Task: Checklist item: Percent Effect tested on Trypanosoma brucei, entry Cc1ccn(CCC(=O)N2CCCC2c2nnc(-c3scnc3C)o2)n1 (configuration not stated) , value?
Output: -1.608

Task: Find the measured Percent Effect: item COc1cccc(C(=O)NCC(c2cccn2C)N2CCCC2)c1OC (configuration not stated) , target or system Trypanosoma brucei.
Output: -16.52

Task: Lookup: Percent Effect / Trypanosoma brucei / CCSc1cncc(N2CCC(NC(=O)C3CCCCC3)CC2)n1
Output: 77.16

Task: Find Percent Effect (Trypanosoma brucei) for the entry CSc1ccc(-c2nc(CN3C[C@@H](C)NC[C@@H]3C)c(C)o2)cc1
Output: 65.6

Task: Kindly state the measured Percent Effect obtained for Cl.OC1(c2ccc(F)cc2)CCN(Cc2ccccc2N2CCCC2)CC1 with Trypanosoma brucei.
Output: -34.29

Task: Test system Trypanosoma brucei; read-out Percent Effect; what value for O=C(O)C(F)(F)F.O=C(O)C(F)(F)F.c1cncc(CN2CCn3c(Cn4cncn4)cnc3C2)c1 ?
Output: -106.7

Task: // map CCSc1cncc(N2CCC(C(=O)Nc3ccccn3)CC2)n1 to recorded Percent Effect (system: Trypanosoma brucei)
Output: 12.36

Task: Hello, I am looking for reported Percent Effect with Trypanosoma brucei for c1ccc(-c2cc(CNCCN3CCOCC3)c3nnnn3c2)cc1 . Could you help?
Output: -21.36

Task: Look up Percent Effect with Trypanosoma brucei for this compound: O=C(O)C(F)(F)F.O=C1CCCN1Cc1ncn2c1CN(C(=O)N1CCCC1)CCC2
Output: -52.13

Task: Trypanosoma brucei / Percent Effect / O=C(O)C(F)(F)F.O=C(c1cnccn1)N1CCCC2(CCN(Cc3ccsc3)CC2)C1 : value?
Output: -8.407
